# System: poly rA–poly rU (RNA, polymer) A/U
# ASSAY_NOTES: UV thermal melting at 260 nm
# SETUP_CONDITIONS: Na+ (sodium cacodylate, I = 0.05 M); pH 7.0; r = [compound]/[phosphate] = 0.2; polynucleotide 1–2 × 10^-5 M; per base
OBSERVED_PROPERTY: ΔTm (°C)

compound="CC(O)C[n+]1c(C=C2C=CN(CCC[N+](C)(C)CCC[N+](C)(C)CCCN3C=CC(=Cc4sc5ccccc5[n+]4CC(C)O)c4ccccc43)c3ccccc32)sc2ccccc21 (stereo not shown)" tgt="poly rA–poly rU (RNA, polymer) A/U" observed_property=ΔTm unit_of_measurement=°C endpoint_value=3.0
compound="CC(O)C[n+]1c(C=C2C=CN(CCC[N+]3(C)CCC(CCCC4CC[N+](C)(CCCN5C=CC(=Cc6sc7ccccc7[n+]6CC(C)O)c6ccc(Cl)cc65)CC4)CC3)c3cc(Cl)ccc32)sc2ccccc21 (stereo not shown)" tgt="poly rA–poly rU (RNA, polymer) A/U" observed_property=ΔTm unit_of_measurement=°C endpoint_value=0.6
compound="CC(O)C[n+]1c(C=C2C=CN(CCC[N+](C)(C)CCC[N+](C)(C)C)c3ccccc32)sc2ccccc21 (stereo not shown)" tgt="poly rA–poly rU (RNA, polymer) A/U" observed_property=ΔTm unit_of_measurement=°C endpoint_value=24.0
compound="CC(O)C[n+]1c(C=C2C=CN(CCC[N+]3(C)CCC(CCCC4CC[N+](C)(CCCN5C=CC(=Cc6sc7ccccc7[n+]6CC(C)O)c6ccccc65)CC4)CC3)c3ccccc32)sc2ccccc21 (stereo not shown)" tgt="poly rA–poly rU (RNA, polymer) A/U" observed_property=ΔTm unit_of_measurement=°C endpoint_value=0
